Every entry's value here was drawn from paper PMC11480844.

B1: H2-Kb / E9 (parent)
chain 1: QQKVQQSPESLTVSEGAMASLNCTFSDRSSDNFRWYRQHSGKGLEVLVSIFSDGEKEEGSFTAHLNRASLHVFLHIREPQPSDSALYLCAVSRSSGSWQLIFGSGTQLTVMP
chain 2: NSGVVQSPRYIIKGKGERSILKCIPISGHLSVAWYQQTQGQELKFFIQHYDKMERDKGNLPSRFSVQQFDDYHSEMNMSALELEDSAVYFCASSRDSNNQAPLFGEGTRLSVL
chain 3: not shown
chain 4: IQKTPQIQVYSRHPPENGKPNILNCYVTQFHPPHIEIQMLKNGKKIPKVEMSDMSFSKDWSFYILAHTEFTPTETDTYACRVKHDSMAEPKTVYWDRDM
chain 5: SIINFEKL

Variants of: B1
Test: % of reporter cells activated (NFAT-GFP), raw; also: test concentration or dose not given here
Details: with E9; scale: % of reporter cells activated
Note to self: use True only for ratio to parent readings below 2; a reading exactly at 2 still gets False.

Variant Name	Class Assignment
chain 5 S1C	False
chain 5 L8A	True
chain 5 I2E	False
chain 5 I3P	True

Problem: ratio to parent strictly < 2 for this variant? chain 5 L8C
Result: False

Problem: ratio to parent strictly < 2 for this variant? chain 5 N4E
Result: True

Problem: ratio to parent strictly < 2 for this variant? chain 5 K7P
Result: False

Problem: ratio to parent strictly < 2 for this variant? chain 5 F5V
Result: True

Problem: ratio to parent strictly < 2 for this variant? chain 5 N4I
Result: True
